The reported numbers originate from patent US20250066745A1.

# assay-text: Luminescence activity assay of purified Gaussia luciferase mutants on coelenterazine
# Assay type: biochemical
# Set-up: key: ratio of mutant luminescence intensity to wild-type Gaussia luciferase
# study-conditions: Substrate CTZ (Table 16)
# Method: In this Example, the protein concentration was determined with a BCA quantitative kit (Thermo Scientific™ Pierce™ BCA Protein Assay Kit) accurately. […] The mutation site of the mutant, the measured luminescence intensity, the ratio of luminescence intensities of the advantageous mutants to the wild-type Gaussia luciferase without the signal peptide having the sequence shown in SEQ ID NO: 3 are shown in Table 15. […]
Label Met when Activity of mutant relative to wild-type Gaussia luciferase without the signal peptide is at or above 0.05; anything below gets Not met.

Reference set, count: 3
P84K E102K S103I E110P L124M V138D: Gaussia luciferase mutant (protein, SIGNAL (1)..(17), Gaussia luciferase mutant) MGVKVLFALICIAVAEAKPTENNEDFNIVAVASNFATTDLDADRGKLPGKKLPLEVLKEMEANARKAGCTRGCLICLSHIKCTKKMKKFIPGRCHTYEGDKKIAQGGIGPAIVDIPEIPGFKDMEPMEQFIAQVDLCDDCTTGCLKGLANVQCSDLLKKWLPQRCATFASKIQGQVDKIKGAGGD = Not met
Q152R T167G G174S Q175E K178N A182Y G183A: Gaussia luciferase mutant (protein, SIGNAL (1)..(17), Gaussia luciferase mutant) MGVKVLFALICIAVAEAKPTENNEDFNIVAVASNFATTDLDADRGKLPGKKLPLEVLKEMEANARKAGCTRGCLICLSHIKCTPKMKKFIPGRCHTYEGDKESAQGGIGEAIVDIPEIPGFKDLEPMEQFIAQVDLCVDCTTGCLKGLANVRCSDLLKKWLPQRCAGFASKIQSEVDNIKGYAGD = Met
V29S A30G V31I A32V S33G A36D T37A: Gaussia luciferase mutant (protein, SIGNAL (1)..(17), Gaussia luciferase mutant) MGVKVLFALICIAVAEAKPTENNEDFNISGIVGNFDATDLDADRGKLPGKKLPLEVLKEMEANARKAGCTRGCLICLSHIKCTPKMKKFIPGRCHTYEGDKESAQGGIGEAIVDIPEIPGFKDLEPMEQFIAQVDLCVDCTTGCLKGLANVQCSDLLKKWLPQRCATFASKIQGQVDKIKGAGGD = Not met

[ask] Hello, I need to know if P84A E102A S103T E110A V138D: Gaussia luciferase mutant (protein, SIGNAL (1)..(17), Gaussia luciferase mutant) MGVKVLFALICIAVAEAKPTENNEDFNIVAVASNFATTDLDADRGKLPGKKLPLEVLKEMEANARKAGCTRGCLICLSHIKCTAKMKKFIPGRCHTYEGDKATAQGGIGAAIVDIPEIPGFKDLEPMEQFIAQVDLCDDCTTGCLKGLANVQCSDLLKKWLPQRCATFASKIQGQVDKIKGAGGD has measured Activity of mutant relative to wild-type Gaussia luciferase without the signal peptide not below 0.05. Thanks!
[reply] Met

[ask] Exam item: decide whether the reported Activity of mutant relative to wild-type Gaussia luciferase without the signal peptide for F26C N27D A30V V31L A32G S33I A36V T37M L40G: Gaussia luciferase mutant (protein, SIGNAL (1)..(17), Gaussia luciferase mutant) MGVKVLFALICIAVAEAKPTENNEDCDIVVLGINFVMTDGDADRGKLPGKKLPLEVLKEMEANARKAGCTRGCLICLSHIKCTPKMKKFIPGRCHTYEGDKESAQGGIGEAIVDIPEIPGFKDLEPMEQFIAQVDLCVDCTTGCLKGLANVQCSDLLKKWLPQRCATFASKIQGQVDKIKGAGGD is at least 0.05.
[reply] Met

[ask] Does F26C N27D A30D A32V S33R A36T: Gaussia luciferase mutant (protein, SIGNAL (1)..(17), Gaussia luciferase mutant) MGVKVLFALICIAVAEAKPTENNEDCDIVDVVRNFTTTDLDADRGKLPGKKLPLEVLKEMEANARKAGCTRGCLICLSHIKCTPKMKKFIPGRCHTYEGDKESAQGGIGEAIVDIPEIPGFKDLEPMEQFIAQVDLCVDCTTGCLKGLANVQCSDLLKKWLPQRCATFASKIQGQVDKIKGAGGD have a reported Activity of mutant relative to wild-type Gaussia luciferase without the signal peptide of at least 0.05?
[reply] Met

[ask] Item Q152R Q163S T167G S170D G174K A182Y G183A: Gaussia luciferase mutant (protein, SIGNAL (1)..(17), Gaussia luciferase mutant) MGVKVLFALICIAVAEAKPTENNEDFNIVAVASNFATTDLDADRGKLPGKKLPLEVLKEMEANARKAGCTRGCLICLSHIKCTPKMKKFIPGRCHTYEGDKESAQGGIGEAIVDIPEIPGFKDLEPMEQFIAQVDLCVDCTTGCLKGLANVRCSDLLKKWLPSRCAGFADKIQKQVDKIKGYAGD with Activity of mutant relative to wild-type Gaussia luciferase without the signal peptide of 0.05 or above?
[reply] Met

[ask] Does the molecule F26R N27Y V29E A30G A32D S33R A36G T37M L40P: Gaussia luciferase mutant (protein, SIGNAL (1)..(17), Gaussia luciferase mutant) MGVKVLFALICIAVAEAKPTENNEDRYIEGVDRNFGMTDPDADRGKLPGKKLPLEVLKEMEANARKAGCTRGCLICLSHIKCTPKMKKFIPGRCHTYEGDKESAQGGIGEAIVDIPEIPGFKDLEPMEQFIAQVDLCVDCTTGCLKGLANVQCSDLLKKWLPQRCATFASKIQGQVDKIKGAGGD have recorded Activity of mutant relative to wild-type Gaussia luciferase without the signal peptide that is 0.05 or more?
[reply] Met

[ask] Check the entry Q152R T167G S170N K178S A182L G183N: Gaussia luciferase mutant (protein, SIGNAL (1)..(17), Gaussia luciferase mutant) MGVKVLFALICIAVAEAKPTENNEDFNIVAVASNFATTDLDADRGKLPGKKLPLEVLKEMEANARKAGCTRGCLICLSHIKCTPKMKKFIPGRCHTYEGDKESAQGGIGEAIVDIPEIPGFKDLEPMEQFIAQVDLCVDCTTGCLKGLANVRCSDLLKKWLPQRCAGFANKIQGQVDSIKGLNGD : does Activity of mutant relative to wild-type Gaussia luciferase without the signal peptide equal or exceed 0.05?
[reply] Met
